System: 407 cancer cell lines
ASSAY METHOD TEXT: Cell viability of cancer cell lines (IC50), CellTiter-Glo Viability Assay, 96 h
Assay type: cell-based
TEST SETTINGS: Homo sapiens, OPM-2, OPM2; read-out: Absolute IC50

>  <CHEMICAL STRUCTURE>
Cc1nn(-c2nc(-c3ccc(C(F)(F)F)cc3)c(SC(C)C)s2)c(C(=O)O)c1-c1cccc(F)c1

>  <IC50, nM>
370

$$$$

----------
Test system: 407 cancer cell lines
ASSAY METHOD TEXT: Cell viability of cancer cell lines (IC50), CellTiter-Glo Viability Assay, 96 h
Type: cell-based
TEST SETTINGS: NCI-H2452; read-out: Absolute IC50

>  <COMPOUND>
N.N.[Cl][Pt][Cl] [Cisplatin, reference compound]

>  <IC50 [µM]>
35.5

$$$$

----------
ASSAY METHOD TEXT: Pharmacokinetics in CD-1 mice, single oral dose compared to single intravenous dose
Format: in vivo
TEST SETTINGS: mouse, 2.5 mg/kg, Oral, 2.5 mpk, blood plasma
RECORDED ENDPOINT: Cmax (ng/mL)

>  <COMPOUND>
Cc1nn(-c2nc(-c3ccc(C(F)(F)F)cc3)c(SC(C)C)s2)c(C(=O)O)c1-c1cccc(F)c1 [Compound A197]

>  <REPORTED RESULT>
2610

$$$$

----------
System: 407 cancer cell lines
ASSAY METHOD TEXT: Cell viability of cancer cell lines (IC50), CellTiter-Glo Viability Assay, 96 h
Assay type: cell-based
TEST SETTINGS: Homo sapiens, SK-LU-1, 96 h, SK-LU-1 cells, 96 h; read-out: Absolute IC50
pIC50: −log10 of the molar value.

>  <CHEMICAL STRUCTURE>
Cc1nn(-c2nc(-c3ccc(C(F)(F)F)cc3)c(SC(C)C)s2)c(C(=O)O)c1-c1cccc(F)c1

>  <pIC50>
5.98

$$$$

----------
System: 407 cancer cell lines
ASSAY METHOD TEXT: Cell viability of cancer cell lines (IC50), CellTiter-Glo Viability Assay, 96 h
Type: cell-based
TEST SETTINGS: 96 h, C4-2, 96 h; read-out: Absolute IC50
pIC50: −log10 of the molar value.
RECORDED ENDPOINT: pIC50

>  <CHEMICAL STRUCTURE>
Cc1nn(-c2nc(-c3ccc(C(F)(F)F)cc3)c(SC(C)C)s2)c(C(=O)O)c1-c1cccc(F)c1

>  <RECORDED ENDPOINT>
pIC50

>  <REPORTED RESULT>
< 4.52

$$$$

----------
System: 407 cancer cell lines
ASSAY METHOD TEXT: Cell viability of cancer cell lines (IC50), CellTiter-Glo Viability Assay, 96 h
Format: cell-based
TEST SETTINGS: JVM-2; read-out: Absolute IC50
RECORDED ENDPOINT: IC50

>  <COMPOUND>
N.N.[Cl][Pt][Cl] [Cisplatin, reference compound]

>  <REPORTED RESULT>
1460 nM

$$$$

----------
Test system: HT-1080
ASSAY METHOD TEXT: Anti-proliferative activity, CellTiter-Glo, 72 hours: HT-1080
Assay type: cell-based, human
TEST SETTINGS: Homo sapiens, HT-1080 (fibrosarcoma), Cell-Titre-Glo

>  <COMPOUND>
COC(=O)c1c(-c2cccc(F)c2)c(C)nn1-c1nc(C2=CCC(C(F)(F)F)CC2)c(SC(C)C)s1 (single isomer, unassigned)

>  <UNITS>
nM

>  <IC50>
528

$$$$
>  <COMPOUND>
Cc1nn(-c2nc(-c3ccc(C(F)(F)F)cc3)c(SC(C)C)s2)c(C(=O)O)c1-c1cccc(F)c1

>  <UNITS>
nM

>  <IC50>
725

$$$$
